Give IC50 for every item shown.
# ASSAY SYSTEM: UniProt:A5K1A2
# Sequence (A5K1A2 entry or part of it): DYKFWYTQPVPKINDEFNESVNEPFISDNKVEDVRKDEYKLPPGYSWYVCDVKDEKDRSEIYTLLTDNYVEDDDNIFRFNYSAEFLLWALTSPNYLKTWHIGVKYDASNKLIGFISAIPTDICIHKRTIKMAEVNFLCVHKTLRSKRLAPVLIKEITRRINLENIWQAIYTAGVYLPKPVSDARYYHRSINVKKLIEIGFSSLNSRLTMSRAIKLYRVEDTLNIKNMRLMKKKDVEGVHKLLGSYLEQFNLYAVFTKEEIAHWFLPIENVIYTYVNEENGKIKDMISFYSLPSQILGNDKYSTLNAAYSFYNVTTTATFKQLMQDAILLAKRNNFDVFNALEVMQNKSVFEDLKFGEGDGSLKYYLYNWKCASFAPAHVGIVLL
# TEST METHOD NOTES: NMT activity assay (CPM fluorescence detection of free CoA), PvNMT
Unit nM implied. Number only.

Noted for "Cc1c(CCOc2ccccc2-c2ccnc(N3CCNCC3)c2)c(C(=O)Nc2cccnc2)nn1C" : its IC50 reads 506

Looking up Cc1c(CCOc2ccc3ccccc3c2-c2ccnc(N3CCNCC3)c2)c(C(=O)Nc2cccnc2)nn1C [Compound 10a] , I see its IC50 listed as 5070

Just so you know, measured IC50 for "Cc1c(CCOc2ccccc2-c2ccnc(N3CCNCC3)c2)c(C(=O)N2CCOCC2)nn1C" came out at 24

The compound listed as "Cc1c(CCOc2cccnc2-c2ccnc(N3CCNCC3)c2)c(C(=O)N2CCOCC2)nn1C" shows IC50 equal to 46

Just so you know, measured IC50 for Cc1c(CCOc2ccc3ccccc3c2-c2ccnc(N3CCNCC3)c2)c(C(=O)NCC(N)=O)nn1C [Compound 10d] came out at 1000

Measured IC50, Cc1c(CCOc2ccc3ccccc3c2-c2ccnc(N3CCNCC3)c2)c(C(=O)NCC(=O)O)nn1C [Compound 10c] : 1060

The recorded IC50 for Cc1c(CCOc2ccc3ccccc3c2-c2ccnc(N3CCNCC3)c2)c(C(=O)N2CCOCC2)nn1C [Compound 10b] is 91

compound "Cc1c(CCOc2ccccc2-c2ccnc(N3CCNCC3)c2)c(C(=O)NCCO)nn1C" , IC50 observed: 39

What the record says about "CC(=O)CNC(=O)c1nn(C)c(C)c1CCOc1ccccc1-c1ccnc(N2CCNCC2)c1" : IC50 is 32

IC50 recorded for this compound, "Cc1c(CCOc2cccnc2-c2ccnc(N3CCNCC3)c2)c(C(=O)Nc2cccnc2)nn1C" , is 1020

Reported IC50 for "Cc1c(CCOc2cccnc2-c2ccnc(N3CCNCC3)c2)c(C(=O)NCC(N)=O)nn1C" was 181

Reported IC50 ( "Cc1c(CCOc2ccccc2-c2ccnc(N3CCNCC3)c2)c(C(=O)NCC(=O)O)nn1C" ) = 147

Sure, the documented IC50 for "Cc1c(CCOc2cccnc2-c2ccnc(N3CCNCC3)c2)c(C(=O)NCC(=O)O)nn1C" is 230

For record "COC(=O)CNC(=O)c1nn(C)c(C)c1CCOc1ccccc1-c1ccnc(N2CCNCC2)c1" the listed IC50 is 20

The recorded IC50 for entry "Cc1c(CCOc2ccccc2-c2ccnc(N3CCNCC3)c2)c(C(=O)NCCN)nn1C" equals 89
